- study-target: T1, human BCMA-hFc kih monovalent recombinant protein (human, UniProt P0DOX5 223-449 = IgG part)
- T1 construct: Knob-into-hole heterodimer with one BCMA arm, expressed in HEK293E; also called human BCMA-hFc recombinant protein
- experiment-summary: SPR (Biacore T200), BCMA-hFc captured on Protein A chip, Fab as analyte, 1:1 Langmuir
Give measured kon for each item. Keep answers brief.
Give me the value, and tack the unit on after it.

// worked examples, kon included
binder	result
16B9 Fab (Fab, V domains shown, Murine BCMA Fab, Ni-NTA purified) VH: EIQLVQSGPELKKPGETVKISCKASGYIFTNFGMNWVRQTPGKALKWMGWINTYTGETIYADDFKGLFAFSLEVPASTAYLQINNLKNEDTATYFCARGEIYYGFDVGFAYWGQGTLVTVSA VL: DIVLTQSPASLTVSLGQRATISCRASKSVSTSGYSYIHWYQQKPGQPPKLLIYLASDLESGVPARFSGSGSGTDFTLNIHPVEEEDAATYYCQHSRELPWTFGGGTKLELK	117000 M⁻¹ s⁻¹
15G9 Fab (Fab, V domains shown, Murine BCMA Fab, Ni-NTA purified) VH: QVQLQQSGPELVKPGASVNLSCKASGYTFTNYVIHWVKQKPGQGLEWIGYTIPYTDVTKYNEKFKAKATLTSDKSSSTAFMELSSLTSEDSAVYYCARYDFDGYFDYWGQGTTLTVSS VL: DIVMTQAAFSNPVTLGTSASISCRSSKSLLHSNGITYLYWYLQKPGQSPQLLIYQMSNLASGVPDRFSSSGSGTDFTLRISRVEAEDVGVYYCAQNLELPWTFGGGTKLELK	1.03e+06 M⁻¹ s⁻¹

Kindly consider the entry below.
What the record says about 6G5 Fab (Fab, V domains shown, Murine BCMA Fab, Ni-NTA purified) VH: EIQLVQSGPELKKPGETVKISCKASGYIFTNFGMNWVRQAPGKALKWMGWINTYTGEQIYADDFKGRFAFSLETSASTAYLQINNLKNEDTATYFCARGEIYYGYDVGFVYWGQGTLVTVSA VL: DIVLTQSPASLAISLGQRATISCRASKSVTTSGYSYIHWYQQKPGQPPKLLIYLASDLEAGVPARFSGSGSGTDFTLNIHPVEEEDAATYYCQHSRELPWTFGGGTKLELK : kon is 29400 M⁻¹ s⁻¹
